# target_under_test: MKK7 (Homo sapiens, UniProt O14733, C202S/C260S/C280S)
# Sequence (O14733 101-408 C202S/C260S/C280S): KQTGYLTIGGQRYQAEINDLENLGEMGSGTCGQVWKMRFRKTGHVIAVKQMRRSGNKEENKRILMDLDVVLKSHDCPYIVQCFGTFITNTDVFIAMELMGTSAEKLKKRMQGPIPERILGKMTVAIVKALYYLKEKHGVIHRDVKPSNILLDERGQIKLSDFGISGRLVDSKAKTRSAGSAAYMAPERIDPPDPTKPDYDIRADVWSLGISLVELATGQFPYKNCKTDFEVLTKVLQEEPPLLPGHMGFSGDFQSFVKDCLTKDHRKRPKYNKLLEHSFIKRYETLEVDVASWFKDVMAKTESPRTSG
# assay_details: Real-time and endpoint fluorescence measurements with glycine-rich loop acrylodan-labelled MKK7 kinase domain
parameter_measured: Kd
State the value with its unit after it.

Which Kd value belongs to COC(=O)[C@@]1(O)C[C@H]2O[C@]1(C)n1c3ccccc3c3c4c(c5c6ccccc6n2c5c31)C(=O)NC4 [K252a] ? 0.038 µM

The measurements presented in this section are drawn from patent US20120107836A1.
